# target.system: interaction between biotinylated human S100A9 and human RAGE-Fc (Homo sapiens)
# Sequence (P06702 1-114): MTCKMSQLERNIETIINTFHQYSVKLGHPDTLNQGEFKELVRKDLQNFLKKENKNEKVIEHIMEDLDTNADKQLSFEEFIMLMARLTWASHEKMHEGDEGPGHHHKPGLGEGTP
# run.description: AlphaScreen inhibition assay, Biot-hS100A9:hRAGE-Fc (S100A9-RAGE inhibition assay)
# run.conditions: biot-hS100A9 and rhRAGE-Fc, Ca2+ and Zn2+ in buffer
pIC50: −log10 of the molar value.
Classification field: 1 = pIC50 at or over 6; -1 = pIC50 under 6.

Ask | Threshold query (pIC50 >= 6) on Cc1cc2nc3n(c2cc1C)C(NC(=O)[C@H](C)OCC1CCCC1)(C(F)(F)F)C(=O)N3 (single isomer, unassigned) [Example 215b]
Reply | -1

Ask | Threshold query (pIC50 >= 6) on CSc1ccc(-c2cccc3c2nc2n3C(NC(=O)CCC3CCCC3)(C(F)(F)F)C(=O)N2)cc1 (stereo not shown)
Reply | 1

Ask | Threshold query (pIC50 >= 6) on O=C(NC1(C(F)(F)F)C(=O)Nc2nc3cc(Cl)c(Cl)cc3n21)C1CCNC1 (mixture of isomers)
Reply | -1

Ask | Threshold query (pIC50 >= 6) on N#Cc1cccc(C(=O)NC2(C(F)(F)F)C(=O)Nc3nc4cc(Cl)c(Cl)cc4n32)c1 (stereo not shown)
Reply | -1

Ask | Threshold query (pIC50 >= 6) on CC(C)CNc1nc(C(=O)NC2(C(F)(F)F)C(=O)Nc3nc4cc(Cl)c(Cl)cc4n32)cs1 (stereo not shown)
Reply | -1

* * *

For each entry below, report its pIC50 value.
# target.system: interaction between biotinylated human S100A9 and human RAGE-Fc (Homo sapiens, UniProt P06702)
# run.description: AlphaScreen inhibition assay, Biot-hS100A9:hRAGE-Fc (S100A9-RAGE inhibition assay)
# run.conditions: biot-hS100A9 and rhRAGE-Fc, Ca2+ and Zn2+ in buffer
FYI, pIC50 means -log10 of a concentration in mol per litre.

Ask | Sample COCCNc1cccc(C(=O)NC2(C(F)(F)F)C(=O)Nc3nc4cc(C)c(C)cc4n32)n1 (single isomer, unassigned) [Example 220b] — what was its pIC50?
Reply | 5.40

Ask | Sample O=C(CCN1CC(F)(F)C1)NC1(C(F)(F)F)C(=O)Nc2nc3cc(Cl)c(Cl)cc3n21 (stereo not drawn) — what was its pIC50?
Reply | 5.40

Ask | Sample O=C(CCC1CCCC1)NC1(C(F)(F)F)C(=O)Nc2nc3c(-c4ccc([N+](=O)[O-])cc4)cccc3n21 (stereo not drawn) — what was its pIC50?
Reply | 5.81

Ask | Sample O=C(NC1(C(F)(F)F)C(=O)Nc2nc3cc(Cl)c(Cl)cc3n21)[C@@H]1CCCN1 (mixture of isomers) — what was its pIC50?
Reply | 5.70

Ask | Sample Cc1cc2nc3n(c2cc1C)C(NC(=O)CCc1ccccc1)(C(F)(F)F)C(=O)N3 (stereo not drawn) — what was its pIC50?
Reply | 5.85

Ask | Sample O=C(CCC1CCCC1)NC1(C(F)(F)F)C(=O)Nc2nc3c(F)c(Br)ccc3n21 (stereo not drawn) — what was its pIC50?
Reply | 5.79

Ask | Sample O=C(NC1(C(F)(F)F)C(=O)Nc2nc3cc(Cl)c(Cl)cc3n21)c1cccc(CO)n1 (stereo not drawn) — what was its pIC50?
Reply | 6.72

Ask | Sample COCCN(C)c1cccc(C(=O)NC2(C(F)(F)F)C(=O)Nc3nc4cc(Cl)c(Cl)cc4n32)n1 (stereo not drawn) — what was its pIC50?
Reply | 5.80

Ask | Sample Cc1cc2nc3n(c2cc1C)C(NC(=O)c1cccc(C2CCCCC2)n1)(C(F)(F)F)C(=O)N3 (stereo not drawn) — what was its pIC50?
Reply | 5.43

Ask | Sample O=C(NC1(C(F)(F)F)C(=O)Nc2nc3cc(Cl)c(Cl)cc3n21)c1ccccc1 (stereo not drawn) — what was its pIC50?
Reply | 6.00

Ask | Sample Cc1cc2nc3n(c2cc1C)C(NC(=O)c1ccccc1)(C(F)(F)F)C(=O)N3 (stereo not drawn) — what was its pIC50?
Reply | 5.46

Ask | Sample COc1ccc(-c2cccc3c2nc2n3C(NC(=O)CCC3CCCC3)(C(F)(F)F)C(=O)N2)cc1 (single isomer, unassigned) [Example 230b] — what was its pIC50?
Reply | 5.54

Ask | Sample O=C(CCC1CCCC1)NC1(C(F)(F)F)C(=O)Nc2nc3c(C(=O)O)cccc3n21 (single isomer, unassigned) [Example 231a] — what was its pIC50?
Reply | 6.18

Ask | Sample CC(C)CC(=O)N1CCC(C(=O)NC2(C(F)(F)F)C(=O)Nc3nc4cc(Cl)c(Cl)cc4n32)CC1 (stereo not drawn) — what was its pIC50?
Reply | 5.52

Ask | Sample CCNc1cccc(C(=O)NC2(C(F)(F)F)C(=O)Nc3nc4cc(C)c(C)cc4n32)n1 (stereo not drawn) — what was its pIC50?
Reply | 5.70

The origin of these recorded values is patent US9771372B2.
